The reported numbers originate from patent US5447942A.

tested on: acetylcholine induced bronchoconstriction; assay: inhibition of acetylcholine induced bronchoconstriction, Konzett and Rossler method (Table B); format: in vivo, Male Hartley Guinea Pigs; details: Cavia porcellus, 0.5 h; 0.13 μmol/kg, IV; 30 mn; read-out: bronchoconstriction protection, score 30 mn
Each item that follows carries a reported inhibition in vivo at 0.13 µmol/kg.

Below are worked cases with known answers.
CC(C)(C)NCC(O)c1ccc(O)c(CO)c1 (stereo not shown) [Salbutamol, reference compound] ... < 20%
OCc1cc(C(O)CNCC2CCC(c3ccncc3)O2)ccc1O (stereo not shown) ... 20 to 50%

Inquiry: For the compound shown here, COc1cc([C@H]2CC[C@H](CNCC(O)c3ccc(O)c(CO)c3)O2)cc(OC)c1OC (relative stereo) [Example 2 (trans)] , give the reported inhibition in vivo at 0.13 µmol/kg.
Reply text: 20 to 50%

Inquiry: I'd like to know its inhibition in vivo at 0.13 µmol/kg. The compound in question is COc1ccc([C@H]2CC[C@H](CNCC(O)c3ccc(O)c(CO)c3)O2)cc1OC (relative stereo) [Example 8 (trans)]
Reply text: 20 to 50%
